study system: SpNbp2
assay explanation: SPOT peptide array binding signal intensity (averaged, normalized) (arbitrary units (background-subtracted, floor 0; scale differs between SH3 domains)); higher = stronger binding of the SH3 domain to the peptide
property measured: SPOT peptide array binding signal intensity
Answers are plain numbers.

* TKPTPPPKPSHLKPK | 2.5
* LRWRHKFFLPAIAAI | 41.8
* DHPKGPPPPPPPDEK | 18.5

// SPOT peptide array binding signal intensity value for YSRKKLPVVLSKMTL : 49.5
